Experiment: PBPK modeling (Simcyp) of DDI with itraconazole
Settings: human, plasma
Measurement kind: clearance (mL/min)

Compound | Test result
COc1cccc2[nH]c(C(=O)N[C@@H](CC(C)C)C(=O)N[C@@H](C[C@@H]3CCNC3=O)C(=O)CO)cc12 [PF-00835231] | 417

###

Biological target: CYP1A2 (Homo sapiens)
Assay: Reversible CYP inhibition in human liver microsomes
Details: human, microsomes, pH 7.4, Percent of Control Activity, CYP 1A2, 1 µM, 30-Minute Preincubation

Smiles | activity at 1 µM, %
COc1cccc2[nH]c(C(=O)N[C@@H](CC(C)C)C(=O)N[C@@H](C[C@@H]3CCNC3=O)C(=O)COP(=O)(O)O)cc12 | 100

###

Target: CYP2C19 (Homo sapiens)
Sequence (P33261 whole entry): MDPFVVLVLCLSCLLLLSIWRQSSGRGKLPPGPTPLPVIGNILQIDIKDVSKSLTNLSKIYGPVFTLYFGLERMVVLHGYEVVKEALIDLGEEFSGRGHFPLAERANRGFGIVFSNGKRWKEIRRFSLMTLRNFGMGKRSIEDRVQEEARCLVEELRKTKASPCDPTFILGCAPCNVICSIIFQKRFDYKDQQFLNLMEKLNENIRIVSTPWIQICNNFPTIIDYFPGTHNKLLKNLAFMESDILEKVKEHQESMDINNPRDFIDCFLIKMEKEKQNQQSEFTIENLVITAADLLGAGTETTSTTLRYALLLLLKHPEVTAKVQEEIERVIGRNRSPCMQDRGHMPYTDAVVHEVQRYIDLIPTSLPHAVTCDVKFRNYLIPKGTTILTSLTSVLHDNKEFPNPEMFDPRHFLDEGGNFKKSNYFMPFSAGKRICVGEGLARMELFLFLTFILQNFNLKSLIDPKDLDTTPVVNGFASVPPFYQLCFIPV
Experiment: Reversible CYP inhibition in human liver microsomes
Conditions: human, microsomes, pH 7.4, Percent of Control Activity, CYP 2C19, 100 µM, Zero-Minute Preincubation

Molecule | Unit text | activity at 100 µM
COc1cccc2[nH]c(C(=O)N[C@@H](CC(C)C)C(=O)N[C@@H](C[C@@H]3CCNC3=O)C(=O)COP(=O)(O)O)cc12 [PF-07304814] | % | 91.5

###

Assay: Monkey pharmacokinetic study
Details: male, Cynomolgus, cynomolgus monkey, plasma, iv, 1 mg/kg, Half life, Mean, monkey, PF-00835231 active dosed 1mg/kg intravenous (crossover)

Compound | Unit text | half-life
COc1cccc2[nH]c(C(=O)N[C@@H](CC(C)C)C(=O)N[C@@H](C[C@@H]3CCNC3=O)C(=O)CO)cc12 [PF-00835231] | min | 55.2

###

Target: CYP2B6 (Homo sapiens, UniProt P20813)
Sequence (P20813 1-491): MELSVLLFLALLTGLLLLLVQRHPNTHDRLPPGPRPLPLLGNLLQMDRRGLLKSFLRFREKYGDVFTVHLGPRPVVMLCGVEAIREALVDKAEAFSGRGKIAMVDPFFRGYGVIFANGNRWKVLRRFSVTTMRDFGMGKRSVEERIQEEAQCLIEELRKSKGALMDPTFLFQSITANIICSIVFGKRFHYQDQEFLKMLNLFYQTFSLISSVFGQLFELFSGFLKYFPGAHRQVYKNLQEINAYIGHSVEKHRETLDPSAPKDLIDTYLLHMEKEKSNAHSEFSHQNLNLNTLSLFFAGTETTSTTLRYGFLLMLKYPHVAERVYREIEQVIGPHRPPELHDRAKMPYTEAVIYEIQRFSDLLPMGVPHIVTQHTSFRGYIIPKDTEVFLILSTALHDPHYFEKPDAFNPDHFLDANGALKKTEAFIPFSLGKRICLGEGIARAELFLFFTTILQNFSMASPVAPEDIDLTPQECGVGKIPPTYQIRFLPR
Test: Reversible CYP inhibition in human liver microsomes
Type: in vitro ADME
Conditions: human, human liver microsomes, pH 7.4, probe bupropion (hydroxylation), at approximately KM

Smiles | IC50
COc1cccc2[nH]c(C(=O)N[C@@H](CC(C)C)C(=O)N[C@@H](C[C@@H]3CCNC3=O)C(=O)CO)cc12 | > 200 µM

###

Assay: Cytotoxicity in MRC-5 cells
Settings: human

Smiles | CC50 at 5 days
COc1cccc2[nH]c(C(=O)N[C@@H](CC(C)C)C(=O)N[C@@H](C[C@@H]3CCNC3=O)C(=O)COP(=O)(O)O)cc12 | > 100 µM

###

Assay: Rat pharmacokinetic study
Conditions: male, Wistar-Hannover, rat, plasma, iv, 2 mg/kg, Clearance, PF-00835231 active dosed 2mg/kg intravenous, individual rats
Measurement kind: clearance (mL/min/kg)

Compound | Test result
COc1cccc2[nH]c(C(=O)N[C@@H](CC(C)C)C(=O)N[C@@H](C[C@@H]3CCNC3=O)C(=O)CO)cc12 [PF-00835231] | 27.1

###

Target: UniProt P11712
Sequence (P11712 whole entry): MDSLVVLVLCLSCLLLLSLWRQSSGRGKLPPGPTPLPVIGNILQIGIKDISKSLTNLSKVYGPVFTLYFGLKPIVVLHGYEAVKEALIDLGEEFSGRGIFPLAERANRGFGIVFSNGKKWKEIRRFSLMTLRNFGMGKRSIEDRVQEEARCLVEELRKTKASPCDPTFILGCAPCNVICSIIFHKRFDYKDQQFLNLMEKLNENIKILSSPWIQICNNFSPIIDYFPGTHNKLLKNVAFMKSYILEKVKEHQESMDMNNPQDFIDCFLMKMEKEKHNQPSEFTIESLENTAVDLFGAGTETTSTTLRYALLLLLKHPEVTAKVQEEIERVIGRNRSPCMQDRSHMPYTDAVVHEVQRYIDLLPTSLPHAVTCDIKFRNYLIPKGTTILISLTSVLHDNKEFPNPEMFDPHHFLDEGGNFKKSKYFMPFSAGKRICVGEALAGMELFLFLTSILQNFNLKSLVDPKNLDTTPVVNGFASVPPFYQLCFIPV
Assay: Reversible CYP inhibition in human liver microsomes
Conditions: human, microsomes, pH 7.4, Percent of Control Activity, CYP 2C9, 100 µM, 30-Minute Preincubation
Measurement kind: activity at 100 µM

Smiles | Test result
COc1cccc2[nH]c(C(=O)N[C@@H](CC(C)C)C(=O)N[C@@H](C[C@@H]3CCNC3=O)C(=O)COP(=O)(O)O)cc12 | 96.5%

###

Target: CYP2C8 (Homo sapiens)
Sequence (P10632 whole entry): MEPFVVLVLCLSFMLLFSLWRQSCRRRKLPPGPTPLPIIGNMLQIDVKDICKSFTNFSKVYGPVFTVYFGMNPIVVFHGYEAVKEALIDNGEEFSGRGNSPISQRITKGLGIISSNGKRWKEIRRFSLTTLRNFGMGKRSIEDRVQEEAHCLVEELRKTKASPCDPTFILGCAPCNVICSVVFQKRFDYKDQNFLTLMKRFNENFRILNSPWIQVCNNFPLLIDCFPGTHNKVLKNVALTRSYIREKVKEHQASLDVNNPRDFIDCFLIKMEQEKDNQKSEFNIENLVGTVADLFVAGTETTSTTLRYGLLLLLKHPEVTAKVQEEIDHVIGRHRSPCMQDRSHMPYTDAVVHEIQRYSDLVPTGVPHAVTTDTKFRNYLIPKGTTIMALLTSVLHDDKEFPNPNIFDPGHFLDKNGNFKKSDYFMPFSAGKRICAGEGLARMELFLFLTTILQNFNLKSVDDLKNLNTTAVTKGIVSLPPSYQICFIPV
Test: Reversible CYP inhibition in human liver microsomes
Details: human, microsomes, pH 7.4, Percent of Control Activity, CYP 2C8, 0.214 µM, Zero-Minute Preincubation

Molecule | Tested system | Unit text | activity at 0.214 µM
COc1cccc2[nH]c(C(=O)N[C@@H](CC(C)C)C(=O)N[C@@H](C[C@@H]3CCNC3=O)C(=O)CO)cc12 [PF-00835231] | CYP2C8 (Homo sapiens) | % | 103

###

Target: CYP1A2 (Homo sapiens, UniProt P05177)
Sequence (P05177 1-516): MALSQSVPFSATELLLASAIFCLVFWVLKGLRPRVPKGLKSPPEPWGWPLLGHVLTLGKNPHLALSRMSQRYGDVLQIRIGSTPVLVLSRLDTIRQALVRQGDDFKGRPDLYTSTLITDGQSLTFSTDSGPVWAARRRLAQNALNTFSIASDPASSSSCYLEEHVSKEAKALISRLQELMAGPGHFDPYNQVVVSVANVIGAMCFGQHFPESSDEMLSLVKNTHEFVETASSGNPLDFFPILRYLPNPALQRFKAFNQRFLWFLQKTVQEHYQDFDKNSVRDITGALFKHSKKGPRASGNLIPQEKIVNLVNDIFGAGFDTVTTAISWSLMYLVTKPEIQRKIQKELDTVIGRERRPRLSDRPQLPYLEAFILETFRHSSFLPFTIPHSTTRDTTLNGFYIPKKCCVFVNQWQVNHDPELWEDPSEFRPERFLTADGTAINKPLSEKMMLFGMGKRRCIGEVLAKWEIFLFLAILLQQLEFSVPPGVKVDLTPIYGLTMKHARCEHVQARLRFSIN
Test: Reversible CYP inhibition in human liver microsomes
Conditions: human, microsomes, pH 7.4, Percent of Control Activity, CYP 1A2, 100 µM, Zero-Minute Preincubation

Smiles | Tested system | Unit text | activity at 100 µM
COc1cccc2[nH]c(C(=O)N[C@@H](CC(C)C)C(=O)N[C@@H](C[C@@H]3CCNC3=O)C(=O)COP(=O)(O)O)cc12 | CYP1A2 (Homo sapiens, UniProt P05177) | % | 97.8

###

Target: CYP2D6 (Homo sapiens)
Sequence (P10635 whole entry): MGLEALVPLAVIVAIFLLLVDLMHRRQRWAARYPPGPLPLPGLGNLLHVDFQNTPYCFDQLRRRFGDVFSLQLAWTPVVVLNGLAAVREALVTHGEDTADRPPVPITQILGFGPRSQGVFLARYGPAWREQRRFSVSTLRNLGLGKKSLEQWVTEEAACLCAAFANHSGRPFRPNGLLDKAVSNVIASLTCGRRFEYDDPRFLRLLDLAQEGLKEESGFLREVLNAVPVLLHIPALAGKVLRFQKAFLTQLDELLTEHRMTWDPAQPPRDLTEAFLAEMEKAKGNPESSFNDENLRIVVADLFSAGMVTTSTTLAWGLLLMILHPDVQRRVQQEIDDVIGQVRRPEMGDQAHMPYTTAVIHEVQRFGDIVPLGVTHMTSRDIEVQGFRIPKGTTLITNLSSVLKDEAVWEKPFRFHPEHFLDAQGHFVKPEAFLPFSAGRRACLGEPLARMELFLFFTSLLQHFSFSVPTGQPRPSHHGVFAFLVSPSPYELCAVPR
Experiment: Reversible CYP inhibition in human liver microsomes
Details: human, microsomes, pH 7.4, Percent of Control Activity, CYP 2D6, 39.8 µM, 30-Minute Preincubation
Measurement kind: activity at 39.8 µM

Smiles | Measurement kind | Test result
COc1cccc2[nH]c(C(=O)N[C@@H](CC(C)C)C(=O)N[C@@H](C[C@@H]3CCNC3=O)C(=O)COP(=O)(O)O)cc12 | activity at 39.8 µM | 102%

###

Assay: Plasma protein binding by equilibrium dialysis
Conditions: human, plasma, pH 7.4, Fraction unbound, Geomean, human plasma, 3.44 uM, n 12
Measurement kind: fraction unbound at 6 h, 3.44 uM

Molecule | Measurement kind | Test result
COc1cccc2[nH]c(C(=O)N[C@@H](CC(C)C)C(=O)N[C@@H](C[C@@H]3CCNC3=O)C(=O)COP(=O)(O)O)cc12 [PF-07304814] | fraction unbound at 6 h, 3.44 uM | 0.184

###

Biological target: Human Elastase (Homo sapiens, UniProt P08246)
Sequence (P08246 30-247 limits assumed): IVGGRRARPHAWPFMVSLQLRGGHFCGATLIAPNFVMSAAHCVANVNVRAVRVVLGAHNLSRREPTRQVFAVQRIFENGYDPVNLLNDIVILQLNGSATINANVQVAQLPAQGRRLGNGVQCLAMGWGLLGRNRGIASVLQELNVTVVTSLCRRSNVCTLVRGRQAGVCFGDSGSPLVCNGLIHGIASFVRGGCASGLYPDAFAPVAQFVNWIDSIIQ
Measurement kind: IC50

Molecule | Measurement kind | Test result
COc1cccc2[nH]c(C(=O)N[C@@H](CC(C)C)C(=O)N[C@@H](C[C@@H]3CCNC3=O)C(=O)CO)cc12 [PF-00835231] | IC50 | > 33 µM

###

Target: MDR1/P-gp (Homo sapiens, UniProt P08183)
Sequence (P08183 whole entry): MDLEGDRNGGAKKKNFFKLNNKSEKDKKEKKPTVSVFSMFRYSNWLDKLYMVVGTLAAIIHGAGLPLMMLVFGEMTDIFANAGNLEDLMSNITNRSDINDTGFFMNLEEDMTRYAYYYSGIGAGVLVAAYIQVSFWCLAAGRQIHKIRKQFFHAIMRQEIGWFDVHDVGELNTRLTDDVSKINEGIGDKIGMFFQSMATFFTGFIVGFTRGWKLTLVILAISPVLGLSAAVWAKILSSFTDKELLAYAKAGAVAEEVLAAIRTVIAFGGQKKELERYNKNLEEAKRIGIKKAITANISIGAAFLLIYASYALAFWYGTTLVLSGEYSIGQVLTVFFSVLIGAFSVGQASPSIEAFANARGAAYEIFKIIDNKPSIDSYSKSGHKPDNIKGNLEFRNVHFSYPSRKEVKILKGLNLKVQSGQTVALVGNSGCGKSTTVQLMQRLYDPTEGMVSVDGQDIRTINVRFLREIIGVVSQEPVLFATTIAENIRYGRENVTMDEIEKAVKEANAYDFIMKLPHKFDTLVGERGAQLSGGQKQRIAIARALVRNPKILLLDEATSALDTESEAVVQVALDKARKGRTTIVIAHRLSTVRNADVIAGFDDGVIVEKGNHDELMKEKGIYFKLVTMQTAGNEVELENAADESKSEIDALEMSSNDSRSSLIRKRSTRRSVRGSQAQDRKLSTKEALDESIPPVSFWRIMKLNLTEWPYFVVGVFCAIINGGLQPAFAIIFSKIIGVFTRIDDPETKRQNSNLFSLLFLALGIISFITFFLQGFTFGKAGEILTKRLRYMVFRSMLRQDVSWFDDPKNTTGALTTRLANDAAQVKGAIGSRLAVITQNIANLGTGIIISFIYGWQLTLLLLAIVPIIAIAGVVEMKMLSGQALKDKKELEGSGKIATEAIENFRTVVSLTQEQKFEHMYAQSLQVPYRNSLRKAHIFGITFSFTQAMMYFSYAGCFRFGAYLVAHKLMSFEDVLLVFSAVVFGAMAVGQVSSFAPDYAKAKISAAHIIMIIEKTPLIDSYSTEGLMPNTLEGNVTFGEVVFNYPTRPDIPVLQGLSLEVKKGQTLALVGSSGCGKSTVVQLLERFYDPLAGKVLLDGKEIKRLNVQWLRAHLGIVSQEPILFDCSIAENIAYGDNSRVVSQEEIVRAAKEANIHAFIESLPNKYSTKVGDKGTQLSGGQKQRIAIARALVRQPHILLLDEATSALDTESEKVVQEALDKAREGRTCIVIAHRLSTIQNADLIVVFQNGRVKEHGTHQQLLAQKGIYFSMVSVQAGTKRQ
Assay: Transporter inhibition using membrane vesicles
Details: IC50, N-methyl quinidine (0.2 µM)

Molecule | Relation | IC50 (µM)
COc1cccc2[nH]c(C(=O)N[C@@H](CC(C)C)C(=O)N[C@@H](C[C@@H]3CCNC3=O)C(=O)COP(=O)(O)O)cc12 [PF-07304814] | > | 300
COc1cccc2[nH]c(C(=O)N[C@@H](CC(C)C)C(=O)N[C@@H](C[C@@H]3CCNC3=O)C(=O)CO)cc12 [PF-00835231] | = | 65.6

###

Assay: Metabolic stability and enzyme kinetics in liver S9 (conversion to PF-00835231)
Settings: human, liver S9, pH 7.5, CLint total, Human; (vmax / KM) + CL
Measurement kind: microsomal CLint (µL/min/mg)

Smiles | Unit text | Test result
COc1cccc2[nH]c(C(=O)N[C@@H](CC(C)C)C(=O)N[C@@H](C[C@@H]3CCNC3=O)C(=O)COP(=O)(O)O)cc12 | µL/min/mg | 381
